Tested on: M. morganii DY-1
TEST PROTOCOL: MIC by agar dilution, M. morganii DY-1
Format: cell-based
SETUP CONDITIONS: Morganella morganii, DY1, 17 h; M. morganii DY-1; agar dilution, Mueller-Hinton agar; read-out: Minimal Inhibitory Concentration (MIC)
MEASURE: MIC (mg/L)
# number only, unit mg/L dropped from output

>>> print(df.to_string())
                                item_smiles       target_desc  reported_value
0  CO/N=C(\C(=O)N[C@@H]1C(=O)N2C(C(=O)[O-])=C(C[n+]3ccn4cccc4c3C)CS[C@H]12)c1nsc(N)n1  M. morganii DY-1            0.05
1  CO/N=C(\C(=O)N[C@@H]1C(=O)N2C(C(=O)[O-])=C(C[n+]3ccn4c(C(C)=O)cc(Cl)c4c3)CS[C@H]12)c1csc(N)n1  M. morganii DY-1            0.05

Query string: Record request: MIC value, item CO/N=C(\C(=O)N[C@@H]1C(=O)N2C(C(=O)[O-])=C(C[n+]3ccn4ccc(CO)c4c3)CS[C@H]12)c1nsc(N)n1
Result string: 0.025
